# study-system: UniProt:P49336
# Sequence (P49336 whole entry, species assumed): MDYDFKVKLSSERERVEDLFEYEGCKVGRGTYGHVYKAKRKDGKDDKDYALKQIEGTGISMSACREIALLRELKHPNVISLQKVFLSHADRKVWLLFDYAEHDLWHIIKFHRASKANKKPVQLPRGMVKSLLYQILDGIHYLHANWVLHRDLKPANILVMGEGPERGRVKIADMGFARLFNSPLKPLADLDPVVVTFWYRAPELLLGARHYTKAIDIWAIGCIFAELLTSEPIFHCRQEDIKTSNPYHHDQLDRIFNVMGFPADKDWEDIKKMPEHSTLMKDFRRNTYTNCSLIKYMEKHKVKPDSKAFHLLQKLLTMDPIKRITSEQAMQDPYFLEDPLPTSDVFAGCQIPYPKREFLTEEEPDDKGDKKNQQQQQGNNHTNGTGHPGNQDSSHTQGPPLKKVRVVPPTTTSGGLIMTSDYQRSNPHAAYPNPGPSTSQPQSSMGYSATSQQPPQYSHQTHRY
# Sequence (P24863 whole entry partner, species assumed): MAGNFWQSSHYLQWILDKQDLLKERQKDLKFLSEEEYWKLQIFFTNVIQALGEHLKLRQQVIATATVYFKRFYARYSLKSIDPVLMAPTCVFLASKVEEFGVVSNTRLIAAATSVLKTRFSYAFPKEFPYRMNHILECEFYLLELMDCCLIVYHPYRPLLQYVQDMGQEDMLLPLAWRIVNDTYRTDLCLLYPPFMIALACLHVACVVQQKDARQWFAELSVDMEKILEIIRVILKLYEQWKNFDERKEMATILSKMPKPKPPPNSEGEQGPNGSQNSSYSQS
# test-summary: biochemical
# Procedure: Briefly, BODIPY-FL- or Cy5-FL-conjugated staurosporine derivative that binds to a highly conserved ATP-binding pocket in kinases was used as a fluorescent probe and tested compounds were applied at 0.1 and 1 μM in competitive binding assays for ~ 350 recombinant protein kinases. TR-FRET fluorescent signals from terbium and BODIPY/Cy5-FL were measured using an EnVision plate reader (PerkinElmer, Waltham, MA, USA), and pIC50 values were extrapolated from the inhibition rate.
observation-type: pIC50
A value of pIC50 is the negative decimal logarithm of a concentration given in moles per litre.

q: Given Cc1cccc(-c2n[nH]cc2-c2ccc3ncccc3n2)n1 , state its recorded pIC50.
a: 6.80

The reported numbers originate from paper PMC9814340.
